Reference source: patent US11180504B2

# Test system: carbapenemase producing K. pneumoniae
# assay_procedure: MIC by broth micro-dilution (CLSI), carbapenemase producing K. pneumoniae
# Format: cell-based, Klebsiella pneumoniae
# condition_info: Klebsiella pneumoniae, ATCCBAA1705, KPC-2 K. pneumoniae ATCC BAA-1705; read-out: MIC
Exam item: assign y to entries whose MIC is below 8 µg/mL and n to entries at or above 8 µg/mL. Note that a value of exactly 8 µg/mL receives n.

C[C@@H](NC(=O)C(F)F)[C@H]1C(=O)N2C(C(=O)O)=C(SC[C@@H]3CNCCN3)[C@H](C)[C@H]12 [Example 289] : n
C[C@@H](NC(=O)c1cnccn1)[C@H]1C(=O)N2C(C(=O)O)=C(S[C@@H]3CN[C@H](C(=O)N(C)C)C3)[C@H](C)[C@H]12 [Example 303] : n
CC(C)C[C@@H](F)C(=O)N[C@H](C)[C@H]1C(=O)N2C(C(=O)O)=C(S[C@@H]3CN[C@H](C(=O)N(C)C)C3)[C@H](C)[C@H]12 [Example 79] : n
C[C@@H](NC(=O)Cn1cnnn1)[C@H]1C(=O)N2C(C(=O)O)=C(S[C@@H]3CN[C@H](C(=O)N4C[C@H](N)C[C@H]4C(=O)O)C3)[C@H](C)[C@H]12 [Example 453] : y

Input line: Quick check: does C[C@@H](NC(=O)[C@H]1CCCN1)[C@H]1C(=O)N2C(C(=O)O)=C(S[C@@H]3CN[C@H](C(=O)N(C)C)C3)[C@H](C)[C@H]12 [Example 227] have MIC under 8 µg/mL?
Output line: y

Input line: Please let me know if C[C@@H](NC(=O)Cn1cnnn1)[C@H]1C(=O)N2C(C(=O)O)=C(S[C@@H]3CN[C@H](C(=O)N4C[C@H]5CC[C@@H](C4)[C@H]5N)C3)[C@H](C)[C@H]12 [Example 345] shows MIC below 8 µg/mL.
Output line: n

Input line: Regarding CNCC(=O)N[C@H](C)[C@H]1C(=O)N2C(C(=O)O)=C(S[C@@H]3CN[C@H](C(=O)NC4CCOCC4)C3)[C@H](C)[C@H]12 [Example 279] , kindly confirm whether its MIC is beneath 8 µg/mL.
Output line: n

Input line: hey, is MIC for C[C@@H](NC(=O)Cn1cnnn1)[C@H]1C(=O)N2C(C(=O)O)=C(S[C@@H]3CN[C@H](C(=O)N4CCC[C@H](N)C4)C3)[C@H](C)[C@H]12 [Example 341] lower than 8 µg/mL or not?
Output line: y

Input line: Please state whether MIC is below 8 µg/mL for C[C@@H](NC(=O)Cn1cnnn1)[C@H]1C(=O)N2C(C(=O)O)=C(S[C@@H]3CN[C@H](C(=N)N4CC[C@@H](N)C4)C3)[C@H](C)[C@H]12 [Example 550]
Output line: y

Input line: Take the molecule C[C@@H](NC(=O)Cn1cnnn1)[C@H]1C(=O)N2C(C(=O)O)=C(S[C@@H]3CN[C@H](C(=O)N(C)C)C3)[C@H](C)[C@H]12 [Example 283] and say whether its MIC is less than 8 µg/mL.
Output line: y

###

# Tested on: carbapenemase producing K. pneumoniae
# assay_procedure: MIC by broth micro-dilution (CLSI), carbapenemase producing K. pneumoniae
# Assay type: cell-based, Klebsiella pneumoniae
# condition_info: Klebsiella pneumoniae, ATCCBAA1705, KPC-2 K. pneumoniae ATCC BAA-1705; read-out: MIC
property_name: MIC
Param answer (str): number followed by unit.

# example entries with known answers
CNCC(=O)N[C@H](C)[C@H]1C(=O)N2C(C(=O)O)=C(S[C@@H]3CN[C@H](C(=O)N4CC(C)(N)C4)C3)[C@H](C)[C@H]12 [Example 292] : 8 µg/mL
C[C@@H](NC(=O)Cn1cnnn1)[C@H]1C(=O)N2C(C(=O)O)=C(S[C@@H]3CN[C@H](C(=O)N4CCN(C(=N)N)CC4)C3)[C@H](C)[C@H]12 [Example 367] : 2 µg/mL

Input line: Tell us which MIC value is on record for CNCc1nnc(CC(=O)N[C@H](C)[C@H]2C(=O)N3C(C(=O)O)=C(S[C@@H]4CN[C@H](C(=O)N(C)C)C4)[C@H](C)[C@H]23)o1 [Example 295]
Output line: 16 µg/mL

###

# System: carbapenemase producing K. pneumoniae
# assay_procedure: MIC by broth micro-dilution (CLSI), carbapenemase producing K. pneumoniae
# Assay type: cell-based, Klebsiella pneumoniae
# condition_info: Klebsiella pneumoniae, ATCCBAA1705, KPC-2 K. pneumoniae ATCC BAA-1705; read-out: MIC
property_name: MIC (µg/mL)
Number only, in µg/mL; omit the unit.

Take a look at these entries with their results.
C[C@@H](NC(=O)Cn1cnnn1)[C@H]1C(=O)N2C(C(=O)O)=C(S[C@@H]3CN[C@H](C(=O)N4CC5[C@H](O)[C@H](N)C[C@@]5(CO)C4)C3)[C@H](C)[C@H]12 (some centres unmarked) [Example 547] : 2
C[C@@H](NC(=O)C(F)F)[C@H]1C(=O)N2C(C(=O)O)=C(S[C@@H]3CN[C@H](CNC(=O)[C@@H]4C[C@H](N)CN4)C3)[C@H](C)[C@H]12 [Example 259] : 16
C[C@@H](NC(=O)Cn1cnnn1)[C@H]1C(=O)N2C(C(=O)O)=C(S[C@@H]3CN[C@H](C(=O)N4C[C@@H](N)C[C@H]4CNS(N)(=O)=O)C3)[C@H](C)[C@H]12 [Example 454] : 4
C[C@@H](NC(=O)C(F)F)[C@H]1C(=O)N2C(C(=O)O)=C(S[C@@H]3CN[C@H](C(=O)N4CC[C@@H](NCC(N)=O)C4)C3)[C@H](C)[C@H]12 [Example 154] : 8

# ---- query molecule ----
Input line: Return value of MIC for input CNCC(=O)N[C@H](C)[C@H]1C(=O)N2C(C(=O)O)=C(S[C@@H]3CN[C@H](CNC(=O)c4cc(=O)c(O)cn4C)C3)[C@H](C)[C@H]12 [Example 254] , no commentary.
Output line: 16

###

Measured MIC values are reported for all entries that follow.
# Tested on: carbapenemase producing K. pneumoniae
# assay_procedure: MIC by broth micro-dilution (CLSI), carbapenemase producing K. pneumoniae
# Assay type: cell-based, Klebsiella pneumoniae
# condition_info: Klebsiella pneumoniae, ATCCBAA1705, KPC-2 K. pneumoniae ATCC BAA-1705; read-out: MIC
Record the value in µg/mL, omitting the unit from your answer.

Study these solved cases before continuing.
C[C@@H](NC(=O)C(F)F)[C@H]1C(=O)N2C(C(=O)O)=C(S[C@@H]3CN[C@H](C(=O)N(C)Cc4cc(=O)c(O)cn4C)C3)[C@H](C)[C@H]12 : 32
C[C@@H](NC(=O)Cn1cnnn1)[C@H]1C(=O)N2C(C(=O)O)=C(S[C@@H]3CN[C@H](C(=O)N4CC[C@@H](N(C)C)C4)C3)[C@H](C)[C@H]12 : 4
C[C@@H](NC(=O)C(F)F)[C@H]1C(=O)N2C(C(=O)O)=C(SCc3cccnc3)[C@H](C)[C@H]12 : 32

Input line: Tell me MIC reported for C[C@@H](NC(=O)Cn1cnnn1)[C@H]1C(=O)N2C(C(=O)O)=C(S[C@@H]3CN[C@H](C(=O)N4CCO[C@H](CN)C4)C3)[C@H](C)[C@H]12
Output line: 2

Input line: Tell me MIC reported for Cc1nnnn1CC(=O)N[C@H](C)[C@H]1C(=O)N2C(C(=O)O)=C(S[C@@H]3CN[C@H](C(=O)N(C)C)C3)[C@H](C)[C@H]12
Output line: 2

###

Listed molecules paired with reported MIC
# System: carbapenemase producing K. pneumoniae
# assay_procedure: MIC by broth micro-dilution (CLSI), carbapenemase producing K. pneumoniae
# Format: cell-based, Klebsiella pneumoniae
# condition_info: Klebsiella pneumoniae, ATCCBAA1705, KPC-2 K. pneumoniae ATCC BAA-1705; read-out: MIC
Your answer should be a plain number; it is taken to be in µg/mL.

CNCC(=O)N[C@H](C)[C@H]1C(=O)N2C(C(=O)O)=C(S[C@@H]3CN[C@H](C(=O)N4C[C@H](N)[C@@H](N)C4)C3)[C@H](C)[C@H]12 : 4
CNCC(=O)N[C@H](C)[C@H]1C(=O)N2C(C(=O)O)=C(S[C@@H]3CN[C@H](C(=O)N4CCN(CCN)CC4)C3)[C@H](C)[C@H]12 : 2
C[C@@H](NC(=O)C(F)F)[C@H]1C(=O)N2C(C(=O)O)=C(S[C@@H]3CN[C@H](C(=O)N4CC[C@H](NCc5cc(=O)c(O)cn5C)C4)C3)[C@H](C)[C@H]12 : 128
C[C@@H](NC(=O)Cc1nnn(C)n1)[C@H]1C(=O)N2C(C(=O)O)=C(S[C@@H]3CN[C@H](C(=O)N4CC[C@@H](N)C4)C3)[C@H](C)[C@H]12 : 16
CCCCN[C@H](C)[C@H]1C(=O)N2C(C(=O)O)=C(S[C@@H]3CN[C@H](C(=O)N(C)C)C3)[C@H](C)[C@H]12 : 16

Input line: Output MIC of C[C@@H](NC(=O)[C@@H]1CSCN1)[C@H]1C(=O)N2C(C(=O)O)=C(S[C@@H]3CN[C@H](C(=O)N(C)C)C3)[C@H](C)[C@H]12
Output line: 4

Input line: Note MIC for the molecule shown: C[C@@H](NC(=O)Cn1cnnn1)[C@H]1C(=O)N2C(C(=O)O)=C(S[C@@H]3CN[C@H](C(=O)N4CCN(CCO)CC4)C3)[C@H](C)[C@H]12
Output line: 2

Input line: Respond only with MIC recorded for CN[C@H]1CCN(C(=O)[C@@H]2C[C@H](SC3=C(C(=O)O)N4C(=O)[C@H]([C@@H](C)NC(=O)C(F)F)[C@H]4[C@H]3C)CN2)C1
Output line: 4

Input line: Look up and report measured MIC for this entry: C[C@@H](NC(=O)C(F)(F)CO)[C@H]1C(=O)N2C(C(=O)O)=C(S[C@@H]3CN[C@H](C(=O)N(C)C)C3)[C@H](C)[C@H]12
Output line: 8

Input line: Note MIC for the molecule shown: C[C@@H](NC(=O)Cn1nnnc1C(=O)O)[C@H]1C(=O)N2C(C(=O)O)=C(S[C@@H]3CN[C@H](C(=O)N4CC[C@@H](N)C4)C3)[C@H](C)[C@H]12
Output line: 8
